subject of test: T1, 4H1349-AA
T1 chain: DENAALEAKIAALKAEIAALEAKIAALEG
protocol notes: two-hybrid library CCmax;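 note: natural log of median RNA to DNA barcode read ratio; higher means stronger binding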
particulars: mean of both orientations
attribute measured: interaction score

Here are 3 binders together with their reported answers.
>  <binder>
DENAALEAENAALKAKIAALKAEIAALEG [4H1257-AA]

>  <interaction score>
0.365

$$$$
>  <binder>
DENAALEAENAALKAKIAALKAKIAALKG [4H1262-AA]

>  <interaction score>
0.283

$$$$
>  <binder>
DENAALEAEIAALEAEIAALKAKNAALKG [4H1040-AA]

>  <interaction score>
0.263

$$$$

a: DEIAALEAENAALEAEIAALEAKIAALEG [4H133-AA]
b: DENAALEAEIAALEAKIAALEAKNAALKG [4H1064-AA]
c: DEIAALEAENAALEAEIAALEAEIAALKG [4H130-AA]
INPUT: Sort these binders on interaction score so the largest reading comes first. I would appreciate it if you listed the labels in the requested order.
OUTPUT: b, a, c
(b: 0.539, a: 0.224, c: -0.443)
